target: PI3Kα (alpha) (Homo sapiens (Human)); assay: p110α (alpha) PI3K Binding Assay (ADP-Glo lipid kinase reaction); format: biochemical; conditions: PI3K alpha 0.2 nM, ATP 40 μM, PIP2:3PS 50 μM, 120 min, room temperature; Ki by Morrison Equation; read-out: PI3Kα-(alpha) ATP (Ki) micromolar
Sequence (P42336 whole entry): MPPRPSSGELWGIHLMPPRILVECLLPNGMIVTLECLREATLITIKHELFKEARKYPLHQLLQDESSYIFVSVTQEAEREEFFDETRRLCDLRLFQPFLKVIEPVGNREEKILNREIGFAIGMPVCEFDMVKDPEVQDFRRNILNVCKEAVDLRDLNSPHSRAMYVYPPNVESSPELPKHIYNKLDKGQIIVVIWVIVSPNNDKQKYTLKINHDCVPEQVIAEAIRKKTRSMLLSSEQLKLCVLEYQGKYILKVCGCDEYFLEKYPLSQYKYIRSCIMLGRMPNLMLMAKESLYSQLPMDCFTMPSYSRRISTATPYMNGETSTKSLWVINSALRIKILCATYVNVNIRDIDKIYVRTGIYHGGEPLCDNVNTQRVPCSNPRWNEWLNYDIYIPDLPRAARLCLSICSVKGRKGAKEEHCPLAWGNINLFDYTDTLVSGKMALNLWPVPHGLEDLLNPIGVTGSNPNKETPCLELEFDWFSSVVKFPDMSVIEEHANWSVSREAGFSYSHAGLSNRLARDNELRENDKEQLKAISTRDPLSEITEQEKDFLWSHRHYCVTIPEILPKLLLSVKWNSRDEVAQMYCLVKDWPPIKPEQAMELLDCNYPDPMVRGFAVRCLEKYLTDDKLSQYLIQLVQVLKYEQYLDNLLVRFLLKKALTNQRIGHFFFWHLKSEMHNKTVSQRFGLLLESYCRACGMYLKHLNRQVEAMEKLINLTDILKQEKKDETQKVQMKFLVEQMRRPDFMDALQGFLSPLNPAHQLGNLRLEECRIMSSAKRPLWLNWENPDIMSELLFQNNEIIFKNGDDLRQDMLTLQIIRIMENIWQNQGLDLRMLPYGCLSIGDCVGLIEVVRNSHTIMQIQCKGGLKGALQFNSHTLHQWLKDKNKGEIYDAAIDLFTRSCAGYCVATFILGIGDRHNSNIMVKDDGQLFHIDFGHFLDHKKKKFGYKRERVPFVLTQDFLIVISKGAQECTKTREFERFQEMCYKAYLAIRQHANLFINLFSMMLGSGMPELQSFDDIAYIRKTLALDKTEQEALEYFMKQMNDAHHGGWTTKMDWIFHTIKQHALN
Sequence (P27986 whole entry partner): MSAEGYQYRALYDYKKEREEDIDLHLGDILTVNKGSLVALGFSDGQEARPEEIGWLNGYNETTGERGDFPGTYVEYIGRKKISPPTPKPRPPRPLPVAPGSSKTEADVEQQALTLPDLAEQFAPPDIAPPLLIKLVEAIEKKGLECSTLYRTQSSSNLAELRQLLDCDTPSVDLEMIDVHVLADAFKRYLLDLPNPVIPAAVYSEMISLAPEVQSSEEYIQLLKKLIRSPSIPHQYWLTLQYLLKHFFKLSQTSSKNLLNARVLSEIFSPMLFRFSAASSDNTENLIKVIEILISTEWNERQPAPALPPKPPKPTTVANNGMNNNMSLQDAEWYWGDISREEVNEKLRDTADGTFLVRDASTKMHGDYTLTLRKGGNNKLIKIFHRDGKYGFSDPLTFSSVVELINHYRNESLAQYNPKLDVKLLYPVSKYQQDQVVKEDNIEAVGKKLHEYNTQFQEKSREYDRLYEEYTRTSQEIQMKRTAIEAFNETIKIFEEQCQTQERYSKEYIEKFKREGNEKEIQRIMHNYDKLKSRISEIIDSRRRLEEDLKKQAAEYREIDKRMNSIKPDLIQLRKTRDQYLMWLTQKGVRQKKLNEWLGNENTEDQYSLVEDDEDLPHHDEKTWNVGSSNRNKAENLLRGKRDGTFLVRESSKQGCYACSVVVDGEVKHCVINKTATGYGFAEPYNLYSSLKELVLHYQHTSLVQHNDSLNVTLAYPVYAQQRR
Overview of recorded pKi for various compounds
Reminder that pKi is minus the log10 of a molar concentration.

Consider the worked cases shown below.
Enter measured pKi, system PI3Kα (alpha) (Homo sapiens (Human)), for the compound shown: CC(C)(C(N)=O)n1cc(-c2cc3c4c(c2)nc(-c2ccc5oc(N)nc5c2)n4CCCO3)cn1 [Example 124]
9.93

Enter measured pKi, system PI3Kα (alpha) (Homo sapiens (Human)), for the compound shown: NC(=O)[C@@H](Nc1cc2c3c(c1)nc(N1CCn4ncnc4C1)n3CCCO2)C1CC1 [Example 161]
6.92

Enter measured pKi, system PI3Kα (alpha) (Homo sapiens (Human)), for the compound shown: NC(=O)[C@@H](Nc1cc2c3c(c1)nc(-c1cnn(C4COC4)c1)n3CCCO2)C1CC1 [Example 210]
6.55

Enter measured pKi, system PI3Kα (alpha) (Homo sapiens (Human)), for the compound shown: CNC(=O)C(C)(C)n1cc(-c2cc3c4c(c2)nc(-c2ccc5oc(N)nc5c2)n4CCCO3)cn1 [Example 154]
9.50

Next:
Enter measured pKi, system PI3Kα (alpha) (Homo sapiens (Human)), for the compound shown: NC(=O)[C@@H](Nc1cc2c3c(c1)nc(-c1ccc4oc(=O)[nH]c4c1)n3CCCO2)C1CC1 [Example 196]
6.50

Enter measured pKi, system PI3Kα (alpha) (Homo sapiens (Human)), for the compound shown: C[C@H](Oc1cc2c3c(c1)nc(-c1ccc(-c4ncn[nH]4)cc1F)n3CCCCO2)C(N)=O [Example 293]
10.65

Enter measured pKi, system PI3Kα (alpha) (Homo sapiens (Human)), for the compound shown: CC[C@@H](C(N)=O)n1cc(-c2cc3c4c(c2)nc(-c2ccc5oc(N)nc5n2)n4CCCCO3)cn1 (single isomer, unassigned) [Example 301]
10.42

Enter measured pKi, system PI3Kα (alpha) (Homo sapiens (Human)), for the compound shown: NC(=O)c1ccc(-c2nc3cc(N[C@H](C(N)=O)C4CC4)cc4c3n2CCCO4)cc1F [Example 188]
7.09

Enter measured pKi, system PI3Kα (alpha) (Homo sapiens (Human)), for the compound shown: NC(=O)[C@@H]1CCCN1c1cc2c3c(c1)nc(-c1ccc(-c4cn[nH]c4)nc1)n3CCCO2 [Example 223]
7.13

Enter measured pKi, system PI3Kα (alpha) (Homo sapiens (Human)), for the compound shown: C[C@H](Oc1cc2c3c(c1)nc(-c1ccc4oc(N)nc4n1)n3CCCO2)C(N)=O [Example 266]
9.97

Enter measured pKi, system PI3Kα (alpha) (Homo sapiens (Human)), for the compound shown: C[C@@H](Oc1cc2c3c(c1)nc(-c1cc4sc(N)nc4cc1F)n3CCCCO2)C(N)=O (single isomer, unassigned) [Example 278]
8.34

Enter measured pKi, system PI3Kα (alpha) (Homo sapiens (Human)), for the compound shown: NC(=O)[C@@H](Nc1cc2c3c(c1)nc(-c1cc(F)c4nccnc4c1)n3CCCO2)C1CC1 [Example 215]
9.37
